Biological target: Cytochrome P450 1A2 (Homo sapiens)
Experiment: p450-cyp1a2 (AID 410); further: potency means the concentration at half of the fitted maximal effect
Conditions: recombinant CYP1A2, luciferin-ME demethylation, luminescence; series mostly up to 11.4 µM
Inconclusive results are not listed. The source made the active and inactive calls. The call rests on the fitted dose curve.
measured.endpoint: Potency

# count of solved cases: 6
CN(C)CCCN1c2ccccc2Sc2cnccc21 0.501 µM (active)
CC1(CCC(=O)OC2CCCCC2)OCCO1 inactive
CC1=NCC[N@@+]1(CCc1ccccc1)Cc1ccccc1 inactive
O=S1(=O)N[C@H]2CC[C@@H]3NS(=O)(=O)N[C@H]4CC[C@H](N1)N4S(=O)(=O)N23 inactive
COCCn1c(=O)c(-c2cc(F)cc(F)c2)nc2cnc(Oc3ccccc3)nc21 5.01 µM (active)
C[C@@]12C=CC(=O)C=C1CC[C@@H]1C2=CC[C@]2(C)[C@@H]1CC[C@H]2C(=O)CN1CCN(c2cc(N3CCCC3)nc(N3CCCC3)n2)CC1 12.6 µM (active)

Please give Potency, item by item, for the list that follows.
1. C[C@@]12CC[C@@H]3[C@@H](CC[C@H]4C[C@@H](O)CC[C@]43C)[C@H]1CC[C@@H]2c1cc(C(F)(F)F)n[nH]1
2. OCCn1cnc2c(SCc3ccccc3)ncnc21
3. CC1=C[N+](=O)c2ccccc2[N+]1=O
4. C[C@@H]1C(=O)N(C)C(=O)c2nc[nH]c21

1: 3.98 µM (active); 2: 3.16 µM (active); 3: 6.31 µM (active); 4: inactive
